test: Acute toxicity (LD50) in male mice; conditions: mouse, in vivo, po
Label key: class 1 means LD50 under 1000 mg/kg; class 0 means LD50 of 1000 mg/kg or more.

>>> class_name("Cc1cc2c(-c3ccccc3Br)nc(N3CCNCC3)nc2s1")
"class 0"
>>> class_name("Cc1cc2c(-c3ccccc3C)nc(N3CCNCC3)nc2s1")
"class 0"
>>> class_name("Cc1cc2c(-c3ccccc3)nc(N3CCNCC3)nc2s1")
"class 0"
>>> class_name("Cc1cc2c(-c3ccccc3C#N)nc(N3CCNCC3)nc2s1")
"class 1"
>>> class_name("Cc1cc2c(-c3ccccc3F)nc(N3CCNCC3)nc2s1")
"class 0"
